- test_description: Pharmacokinetics of DPB after oral DPB or NaDPB and IV NaDPB in Beagle dogs
- Assay type: in vivo
- condition_summary: dog, in vivo, IV infusion 75 mg/kg, analyte DPB in plasma
experimental_readout: Cmax (µg/mL)
Give the value in µg/mL but do not write µg/mL after it.

Return Cmax for the following compound: O=C1NC(=O)C(c2ccccc2)(c2ccccc2)C(=O)N1.[Na] [NaDPB, sodium 5,5-diphenyl barbiturate]
95.7

----------
- test_description: Pharmacokinetics of DPB after oral DPB or NaDPB and IV NaDPB in Sprague-Dawley rats
- Format: in vivo
- condition_summary: rat, in vivo; Sprague-Dawley rats, female, oral 150 mg/kg, analyte DPB in plasma
Hi there, I'd appreciate the recorded half-life for every entry that follows.

Provide only the value of recorded half-life for O=C1NC(=O)C(c2ccccc2)(c2ccccc2)C(=O)N1 [DPB, 5,5-diphenyl barbituric acid, reference compound]
33.2 h

Please report half-life for the following compound: O=C1NC(=O)C(c2ccccc2)(c2ccccc2)C(=O)N1.[Na] [NaDPB, sodium 5,5-diphenyl barbiturate]
32.9 h

----------
- test_description: Pharmacokinetics of DPB after oral DPB or NaDPB and IV NaDPB in Beagle dogs
- Type: in vivo
- condition_summary: dog, in vivo, oral 75 mg/kg vs IV 75 mg/kg, read-out: absolute bioavailability of DPB
experimental_readout: bioavailability

Give the reported bioavailability for this compound. O=C1NC(=O)C(c2ccccc2)(c2ccccc2)C(=O)N1.[Na] [NaDPB, sodium 5,5-diphenyl barbiturate]
~58%

----------
- test_description: Pharmacokinetics of DPB after oral DPB or NaDPB and IV NaDPB in Sprague-Dawley rats
- Assay type: in vivo
- condition_summary: rat, in vivo; Sprague-Dawley rats, female, IV infusion 150 mg/kg, analyte DPB in plasma
experimental_readout: half-life (h)
Quick note: give the figure in h, leave out the unit.

Tell me measured half-life for O=C1NC(=O)C(c2ccccc2)(c2ccccc2)C(=O)N1.[Na] [NaDPB, sodium 5,5-diphenyl barbiturate] please.
26.8

----------
- test_description: Brain concentration of DPB after oral DPB or NaDPB and IV NaDPB in Sprague-Dawley rats
- Format: in vivo
- condition_summary: rat, in vivo, male, IV infusion 150 mg/kg, 36 hr
experimental_readout: concentration at 36 h (ng/g)
Give just the numeric value; ng/g need not be written.

Indicate its recorded concentration at 36 h; the compound in question is O=C1NC(=O)C(c2ccccc2)(c2ccccc2)C(=O)N1.[Na] [NaDPB, sodium 5,5-diphenyl barbiturate]
27500

----------
- test_description: Brain concentration of DPB after oral DPB or NaDPB and IV NaDPB in Sprague-Dawley rats
- Type: in vivo
- condition_summary: rat, in vivo, female, IV infusion 150 mg/kg, 18 hr
experimental_readout: concentration at 18 h

Supply measured concentration at 18 h of O=C1NC(=O)C(c2ccccc2)(c2ccccc2)C(=O)N1.[Na] [NaDPB, sodium 5,5-diphenyl barbiturate] in your reply.
36100 ng/g

----------
- test_description: Brain concentration of DPB after oral DPB or NaDPB and IV NaDPB in Sprague-Dawley rats
- Type: in vivo
- condition_summary: rat, in vivo, female, oral 150 mg/kg, 48 hr
experimental_readout: concentration at 48 h (ng/g)
The response must be a number in ng/g with no trailing unit.

Dear colleague, please send me the reported concentration at 48 h for O=C1NC(=O)C(c2ccccc2)(c2ccccc2)C(=O)N1.[Na] [NaDPB, sodium 5,5-diphenyl barbiturate] when you can.
14900
